The values you see were collected from ChEMBL document CHEMBL1157578.

- Test system: KBM5
- procedure_details: Cytotoxicity against imatinib-resistant human KBM5 cells harboring Bcr-Abl T315I mutant at 0.001 to 17 uM after 72 hrs by MTS assay
- Type: functional, cell-based
Activity calls are given as the source filed them. The rule behind the calls is not given here.
Answer with one of the outcomes TRUE = active, FALSE = inactive

Prompt: Hey, what did the test say about "CC(C)[C@]12O[C@H]1[C@@H]1O[C@@]13[C@H]1CCC4=C(COC4=O)[C@@H]1C[C@@H]1O[C@@]13[C@@H]2OC(=O)CNCCN" ?
Response: TRUE

Prompt: Hey, what did the test say about "CC(C)[C@]12O[C@H]1[C@@H]1O[C@@]13[C@H]1CCC4=C(COC4=O)[C@@H]1C[C@@H]1O[C@@]13[C@@H]2OC(=O)CNc1nccc(-c2cccnc2)n1" ?
Response: TRUE

Prompt: Hey, what did the test say about "COC(=O)[C@H](C)NCC(=O)O[C@@H]1[C@@]2(C(C)C)O[C@H]2[C@@H]2O[C@@]23[C@H]2CCC4=C(COC4=O)[C@@H]2C[C@@H]2O[C@]213" ?
Response: TRUE

Prompt: Hey, what did the test say about "CCCCCCCCCCCCNCC(=O)O[C@@H]1[C@@]2(C(C)C)O[C@H]2[C@@H]2O[C@@]23[C@H]2CCC4=C(COC4=O)[C@@H]2C[C@@H]2O[C@]213" ?
Response: FALSE

Prompt: Hey, what did the test say about "CNCC(=O)O[C@@H]1[C@@]2(C(C)C)O[C@H]2[C@@H]2O[C@@]23[C@H]2CCC4=C(COC4=O)[C@@H]2C[C@@H]2O[C@]213" ?
Response: TRUE
